List of pIC50 values.
Test system: HPAF-II cells
test description: HPAF-II Cell Proliferation Assay
Assay type: cell-based
condition context: Homo sapiens, HPAF-II, Table 3; read-out: HPAF-II (IC50 class)
pIC50: −log10 of the molar value.

Here's what some known entries look like.
smiles str: Cc1ccc(NC(=O)c2cc(C(C)(C)F)cnn2)cc1-c1ccnc(-c2ccnc(NC(=O)C3CC3)c2)c1
measured target: HPAF-II cells
measured endpoint: pIC50
observed result: 6.30 to 7.00
--
smiles str: Cc1ccc(NC(=O)c2cc(C3CC3)cnn2)cc1-c1ccnc(-c2ccnc(NC(=O)C3CC3)c2)c1
measured target: HPAF-II cells
measured endpoint: pIC50
observed result: 6.30 to 7.00
--
smiles str: Cc1ccc(NC(=O)c2cc(C(F)(F)F)cnn2)cc1-c1ccnc(-c2ccnc(NC(=O)C3CC3)c2)c1
measured target: HPAF-II cells
measured endpoint: pIC50
observed result: > 7.00
--
smiles str: Cc1ccc(NC(=O)c2cncc(C(F)(F)F)c2)cc1-c1cncc(-c2cc(NC(=O)C3CC3)ncn2)c1
measured target: HPAF-II cells
measured endpoint: pIC50
observed result: > 7.00
--
smiles str: Cc1ccc(NC(=O)c2cc(C(F)(F)F)cnn2)cc1-c1cc(N[C@H](C)CO)nc(-c2cn[nH]c2)c1
measured target: HPAF-II cells
measured endpoint: pIC50
observed result: > 7.00
--
smiles str: Cc1ccc(NC(=O)c2cnc(C(F)(F)F)nc2)cc1-c1ccnc(-c2ccnc(NC(=O)C3CC3)c2)c1
measured target: HPAF-II cells
measured endpoint: pIC50
observed result: > 7.00
--
smiles str: Cc1ccc(NC(=O)c2cc(C(F)(F)F)cnn2)cc1-c1cc(N[C@H](C)CO)nc(-c2ccnc(NC(=O)C3CC3)c2)c1
measured target: HPAF-II cells
measured endpoint: pIC50
observed result: > 7.00
--
smiles str: Cc1ccc(NC(=O)c2cc(C(C)(F)F)cnn2)cc1-c1ccnc(-c2ccnc(NC(=O)C3CC3)c2)c1
measured target: HPAF-II cells
measured endpoint: pIC50
observed result: > 7.00

Please turn your attention to the following entry.
Observed pIC50, HPAF-II cells, Cc1ccc(NC(=O)c2cc(C#N)cnn2)cc1-c1ccnc(-c2ccnc(NC(=O)C3CC3)c2)c1 : 6.30 to 7.00

====

measured target: B-Raf kinase (SEQ ID NO: 1) (Homo sapiens)
Construct: GST (N); purchased Sigma
Sequence (P15056 416-766): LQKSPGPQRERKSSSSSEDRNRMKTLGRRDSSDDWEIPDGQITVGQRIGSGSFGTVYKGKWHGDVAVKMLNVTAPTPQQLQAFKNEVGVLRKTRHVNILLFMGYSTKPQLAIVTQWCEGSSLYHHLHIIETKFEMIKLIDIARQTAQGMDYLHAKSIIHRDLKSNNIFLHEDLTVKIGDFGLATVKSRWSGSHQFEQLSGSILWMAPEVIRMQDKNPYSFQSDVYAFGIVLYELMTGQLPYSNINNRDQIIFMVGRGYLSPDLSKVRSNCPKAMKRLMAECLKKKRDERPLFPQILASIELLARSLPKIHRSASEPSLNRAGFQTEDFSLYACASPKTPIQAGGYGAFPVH
test description: Biochemical Assay for B-Raf (coupled pyruvate kinase/lactate dehydrogenase assay)
condition context: 1 mM ATP; read-out: BRAF (inhibition of biochemical activity, IC50)
measured endpoint: IC50

Here is how some compounds turned out for IC50.
smiles str: Cc1ccc(NC(=O)c2cc(C(F)(F)F)cnn2)cc1-c1ccnc(-c2ccnc(NCCO)c2)c1
observed result: 100 to 500 nM

smiles str: Cc1ccc(NC(=O)c2cc(C)c(C)nn2)cc1-c1ccnc(-c2ccnc(NC(=O)C3CC3)c2)c1
observed result: < 100 nM

B-Raf kinase (SEQ ID NO: 1) (Homo sapiens) assay, compound Cc1ccc(NC(=O)c2cc(C(F)(F)F)cnn2)cc1-c1ccnc(-c2ccnc(NC(=O)CC3CC3)c2)c1 , recorded IC50 = 100 to 500 nM

Bench note, B-Raf kinase (SEQ ID NO: 1) (Homo sapiens): entry CC(=O)Nc1cc(-c2cc(-c3cc(NC(=O)c4ccc(C(F)F)nc4)c(F)cc3C)ccn2)ccn1 , its IC50 = < 100 nM
